Origin of measurements: patent US20260217705A1

experiment: clinical; settings: human, in vivo
MEASURED_PROPERTY: concentration at 22 h

Entry `Cc1cccc(C)c1CNc1cc(C(=O)NCCO)cn2c(C)c(C)nc12` ; concentration at 22 h = ≥ 240 nM
